Reference source: paper PMC4335872

- Assay Protocol: Mouse plasma protein binding, rapid equilibrium dialysis
- Format: in vitro ADME
Endpoint Name: Mouse PPB (%)
Write the value in % as a bare number.

// known answers, use as guide
>  <Compound>
C[C@H]1Cc2c([nH]c3cc(F)c(F)cc23)[C@@]2(N1)C(=O)Nc1ccc(Cl)cc12 [(+)-6]

>  <Unit Abbreviation>
%

>  <Mouse PPB>
99.5

$$$$
>  <Compound>
C[C@H]1Cc2c([nH]c3cc(Cl)ccc23)[C@@]2(N1)C(=O)Nc1ccc(Cl)cc12 [(+)-3]

>  <Unit Abbreviation>
%

>  <Mouse PPB>
99.7

$$$$
>  <Compound>
C[C@H]1Cc2c([nH]c3cc(F)ccc23)[C@@]2(N1)C(=O)Nc1ccc(Cl)cc12 [(+)-5]

>  <Unit Abbreviation>
%

>  <Mouse PPB>
98.5

$$$$

Next:
Supply Mouse PPB value. Item: C[C@H]1Cc2c([nH]c3ccccc23)[C@@]2(N1)C(=O)Nc1ccc(Cl)cc12 [(+)-1]
98.4

----------
- Assay Protocol: In vivo PK after single p.o. and i.v. dosing in CD-1 mice
- Parameters: species or system female CD-1 mice
- Test Settings: single oral dose 25 mg/kg, CD-1 mice, plasma
- Protocol: The Institutional Animal Care and Use Committee (IACUC) of the Novartis Institute for Tropical Diseases (NITD), registered with the Agri-Food and Veterinary authority (AVA), Government of Singapore, reviewed and approved all animal experimental protocols. […] After vortexing and centrifuging the mixture, the supernatant was removed and 5 μl of sample analyzed. Analyte quantitation was performed by high-performance liquid chromatography coupled with tandem mass spectrometry (LC-MS/MS). […]
Documented Cmax across a set of molecules
All answers are understood in µg/mL, so give the number only.

Illustrative cases are given below, each with its answer.
>  <Molecule>
C[C@@H]1Cc2c([nH]c3cc(Cl)c(F)cc23)[C@]2(N1)C(=O)Nc1ccc(Cl)cc12 [(−)-7]

>  <Unit Abbreviation>
µg/mL

>  <Result Number>
8.3

$$$$
>  <Molecule>
C[C@@H]1Cc2c([nH]c3cc(F)c(F)cc23)[C@]2(N1)C(=O)Nc1ccc(Cl)cc12 [(−)-6]

>  <Unit Abbreviation>
µg/mL

>  <Result Number>
5

$$$$
>  <Molecule>
C[C@H]1Cc2c([nH]c3ccccc23)[C@@]2(N1)C(=O)Nc1ccc(Cl)cc12 [(+)-1]

>  <Unit Abbreviation>
µg/mL

>  <Result Number>
1.2

$$$$

Could you now consider this next molecule?
Specify reported Cmax for the molecule shown: C[C@H]1Cc2c([nH]c3cc(F)ccc23)[C@@]2(N1)C(=O)Nc1ccc(Cl)cc12 [(+)-5]
3.1

----------
- Assay Protocol: In vivo PK after single p.o. and i.v. dosing in CD-1 mice
- Set-up: species or system female CD-1 mice
- Test Settings: female, mouse, plasma; single oral dose 25 mg/kg, CD-1 mice; read-out: Tmax
Endpoint Name: Tmax (h)
Record the value in h, omitting the unit from your answer.

Give Tmax for the following compound: C[C@H]1Cc2c([nH]c3cc(Cl)c(F)cc23)[C@@]2(N1)C(=O)Nc1ccc(Cl)cc12 [(+)-7 (KAE609)]
1

----------
- Assay Protocol: In vivo PK after single p.o. and i.v. dosing in CD-1 mice
- Parameters: species or system female CD-1 mice
- Test Settings: female, mouse, plasma; oral 1.5 mg/kg, CD-1 mice, HCl/Solutol HS15/citrate pH 3 formulation; read-out: Tmax
Endpoint Name: Tmax (h)
// return numeric value only (unit: h, not printed)

Respond only with Tmax recorded for C[C@H]1Cc2c([nH]c3cc(Cl)c(F)cc23)[C@@]2(N1)C(=O)Nc1ccc(Cl)cc12 [(+)-7 (KAE609)]
1
